# Test system: MOLM1 and UCSD/AML1 (averaged)
# Experimental protocol: cell viability relative to DMSO control (POC); higher = less growth inhibition
# Reported conditions: 1 µM; 72 h
Among all 2,100 compounds or so, about 180 (8.6%) showed an effect of 50% or more. The sample holds strong results, similar compounds and a random draw of the others, so the mix is not that of the screen.
Endpoint name: cell viability (%)
# unit: % | format: bare number

Examples with their reported cell viability follow.
Compound	Reported value
CC1(C)CNc2cc(NC(=O)c3cccnc3NCc3ccncc3)ccc21 [Motesanib Diphosphate]	86.1
CC(=O)O[C@@]12CO[C@@H]1C[C@H](O)[C@@]1(C)C(=O)[C@H](O)C3=C(C)[C@@H](OC(=O)[C@H](O)[C@@H](NC(=O)OC(C)(C)C)c4ccccc4)C[C@@](O)([C@@H](OC(=O)c4ccccc4)[C@H]21)C3(C)C	14.7
CC(=O)O[C@H]1CC[C@]2(C)[C@H]3CC=C4[C@@H]5CC(C)(C)CC[C@]5(C)CC[C@@]4(C)[C@]3(C)CC[C@H]2C1(C)C [beta-AMYRIN ACETATE]	107
CC(=O)O[C@H]1C(=O)[C@@]2(C)[C@H]([C@H](OC(=O)c3ccccc3)[C@]3(O)C[C@H](OC(=O)[C@H](O)[C@@H](NC(=O)c4ccccc4)c4ccccc4)C(C)=C1C3(C)C)[C@]1(OC(C)=O)CO[C@@H]1C[C@@H]2O	11.7

Q: Fill in reported cell viability for this entry: Nc1ccccc1NC(=O)c1ccc(CNc2nccc(-c3cccnc3)n2)cc1
Result: 4.85
